assay: Binding affinity to human CD4 signal peptide expressed in CHO cells assessed as down-modulation of YFP-fused CD4 expression after 24 hrs by flow cytometric analysis; format: cell-based
Reported pIC50 values are given for each entry in this list.
No unit in the answer, only the number.

• C=C1CN(S(=O)(=O)c2ccc(C)cc2)CCCN(Cc2ccccc2)CCCN(S(=O)(=O)c2ccc(OC(=S)N(C)C)cc2)C1.Cl = 5.2

Turning now to a further compound:
get_value(item= C=C1CN(S(=O)(=O)c2ccc(C)cc2)CCCN(Cc2ccccc2)CCCN(S(=O)(=O)c2ccc(OC)cc2OC)C1.Cl , readout=pIC50) returns 5.87

---

system: MT4; assay: Cytotoxicity against human MT4 cells after 48 hrs by MTS/PES method; type: cell-based; conditions: mt4, 48 h
Listing: CC50 of selected compounds

* C=C1CN(S(=O)(=O)c2ccc(C)cc2)CCCN(Cc2ccccc2)CCCN(S(=O)(=O)c2cccc(N(C)C)c2)C1.Cl | > 150 µM

Next, consider the following compound.
The measured CC50 that C=C1CN(C(=O)c2ccc([N+](=O)[O-])cc2)CCCN(Cc2ccccc2)CCCN(S(=O)(=O)c2ccc(C)cc2)C1 showed for MT4 is > 150 µM

---

test system: MT4; assay: Cytotoxicity against human MT4 cells after 48 hrs by MTS/PES method; assay type: cell-based; conditions: mt4, 48 h
// reported CC50 for each item listed
Write the number in µM without appending the unit.

- C=C1CN(C(=O)c2ccc(N)cc2)CCCN(Cc2ccccc2)CCCN(S(=O)(=O)c2ccc(C)cc2)C1: 13.7

Continue with the next compound.
CC50 for C=C1CN(S(=O)(=O)c2ccc(C)cc2)CCCN(CC2CCCCC2)CCCN(S(=O)(=O)c2ccc(OCCCN3C(=O)c4ccccc4C3=O)cc2)C1 is 32.2

---

test system: Human immunodeficiency virus 1; assay: Antiviral activity against CXCR4 using HIV-1 NL4.3 infected in human MT4 cells assessed as reduction of viral replication preincubated for 15 mins with cells followed by viral infection measured after 4 days by MTS/PES method; type: functional, organism-based; settings: Human immunodeficiency virus 1, NL4.3, MT4
Let's look at some molecules and their measured IC50.
The figure you give is taken to be in µM; do not add the unit.

Please review the following examples before continuing.
* C=C1CN(S(=O)(=O)c2ccc(C)cc2)CCCN(Cc2ccccc2)CCCN(S(=O)(=O)c2ccc([N+](=O)[O-])cc2)C1.Cl | 35.9
* C#CCOc1ccc(S(=O)(=O)N2CCCN(Cc3ccccc3)CCCN(S(=O)(=O)c3ccc(C)cc3)CC(=C)C2)cc1.Cl | 0.55
* C=C1CN(S(=O)(=O)c2ccc(C)cc2)CCCN(CC2CCCCC2)CCCN(S(=O)(=O)c2ccc(-n3cccc3)cc2)C1 | 1.25

Reported IC50 for C=C1CN(S(=O)(=O)c2ccc(C)cc2)CCCN(Cc2ccccc2)CCCN(S(=O)(=O)c2ccccc2N)C1.Cl was 6.93

According to the records, this molecule C=C1CN(S(=O)(=O)c2ccc(C)cc2)CCCN(Cc2ccccc2)CCCN(S(=O)(=O)c2ccc(OC(F)(F)F)cc2)C1.Cl displays IC50 of 3.26

---

Examples of molecules with documented pIC50 follow.
test system: Human immunodeficiency virus 1; experiment: Antiviral activity against CXCR4 using HIV-1 NL4.3 infected in human MT4 cells assessed as reduction of viral replication preincubated for 15 mins with cells followed by viral infection measured after 4 days by MTS/PES method; type: functional, organism-based; conditions: Human immunodeficiency virus 1, NL4.3, MT4
Kindly note that pIC50 refers to -log10 of the concentration in mol/L and answer with the value alone.

Consider the following illustrative entries.
• C=C1CN(S(=O)(=O)c2ccc(C)cc2)CCCN(Cc2ccccc2)CCCN(S(=O)(=O)c2ccc3ccccc3c2)C1.Cl = 5.87
• C=C1CN(C(=O)c2ccc(C)cc2)CCCN(Cc2ccccc2)CCCN(S(=O)(=O)c2ccc(C)cc2)C1 = 5.40

Please look at the following molecule next.
Record C=C1CN(S(=O)(=O)c2ccc(C)cc2)CCCN(Cc2ccccc2)CCCN(S(=O)(=O)c2cccc(N)c2)C1.Cl , field pIC50: 5.21

---

test system: MT4; assay: Cytotoxicity against human MT4 cells after 48 hrs by MTS/PES method; assay type: cell-based; conditions: mt4, 48 h
Measurement Name: CC50

Worked set:
- C=C1CN(S(=O)(=O)c2ccc(C)cc2)CCCN(CC2CCCCC2)CCCN(S(=O)(=O)c2ccc(OCC)cc2)C1: 19.6 µM
- C=C1CN(S(=O)(=O)c2ccc(C)cc2)CCCN(Cc2ccccc2)CCCN(S(=O)(=O)c2ccc(OC)c(OC)c2)C1.Cl: > 150 µM
- C=C1CN(S(=O)(=O)c2ccc(C)cc2)CCCN(Cc2ccccc2)CCCN(S(=O)(=O)c2cccc([N+](=O)[O-])c2)C1.Cl: > 150 µM

Please find the next compound below.
Looking up C=C1CN(S(=O)(=O)c2ccc(C)cc2)CCCN(CC2CCCCC2)CCCN(S(=O)(=O)c2ccc(N3CCOCC3)cc2)C1 , I see its CC50 listed as > 150 µM

---

Overview of reported CC50 across a group of compounds:
system: MT4; assay: Cytotoxicity against human MT4 cells after 48 hrs by MTS/PES method; format: cell-based; details: mt4, 48 h

Please review the entries below; each comes with its answer.
* C#CCOc1ccc(S(=O)(=O)N2CCCN(Cc3ccccc3)CCCN(S(=O)(=O)c3ccc(C)cc3)CC(=C)C2)cc1.Cl | > 150 µM
* C=C1CN(S(=O)(=O)c2ccc(C)cc2)CCCN(Cc2ccccc2)CCCN(S(=O)(=O)c2ccc(N(C)C)cc2)C1.Cl | > 150 µM
* C=C1CN(S(=O)(=O)c2ccc(C)cc2)CCCN(Cc2ccccc2)CCCN(S(=O)(=O)c2ccc(F)cc2)C1.Cl | > 150 µM
* C=C1CNCCCN(Cc2ccccc2)CCCN(S(=O)(=O)c2ccc(C)cc2)C1 | > 150 µM
* C=C1CN(S(=O)(=O)c2ccc(C)cc2)CCCN(CC2CCCCC2)CCCN(S(=O)(=O)c2ccc(O)cc2)C1 | > 150 µM
* C=C1CN(S(=O)(=O)c2ccc(C)cc2)CCCN(Cc2ccccc2)CCCN(S(=O)(=O)c2ccn(C)c2)C1.Cl | > 150 µM

Consider C=C1CN(S(=O)(=O)c2ccc(C)cc2)CCCN(Cc2ccccc2)CCCN(S(=O)(=O)c2ccc(SC)cc2)C1.Cl . Its measured CC50 is > 150 µM

Summary for this compound, C=C1CN(S(=O)(=O)c2ccc(C)cc2)CCCN(Cc2ccccc2)CCCN(S(=O)(=O)c2ccc3ccccc3c2)C1.Cl : CC50 is > 150 µM

Looking up C=C1CN(S(=O)(=O)c2ccc(C)cc2)CCCN(Cc2ccccc2)CCCN(S(=O)(=O)c2ccccc2[N+](=O)[O-])C1.Cl , I found its CC50 recorded as > 150 µM

---

assay: Binding affinity to human CD4 signal peptide expressed in CHO cells assessed as down-modulation of YFP-fused CD4 expression after 24 hrs by flow cytometric analysis; format: cell-based
Measurement Name: pIC50
Please give the numeric answer without any surrounding text.

- C=C1CN(S(=O)(=O)c2ccc(C)cc2)CCCN(Cc2ccccc2)CCCN(S(=O)(=O)c2ccc(OC)c(OC)c2)C1.Cl: 6.51
- C=C1CN(S(=O)(=O)c2ccc(C)cc2)CCCN(Cc2ccccc2)CCCN(S(=O)(=O)c2ccn(C)c2)C1.Cl: 5.5
- C=C1CN(S(=O)(=O)c2ccc(C)cc2)CCCN(Cc2ccccc2)CCCN(S(=O)(=O)c2ccccc2N)C1.Cl: 5.66
- C=C1CN(S(=O)(=O)c2ccc(C)cc2)CCCN(Cc2ccccc2)CCCN(S(=O)(=O)c2ccc3ccccc3c2)C1.Cl: 6.26
- C=C1CN(S(=O)(=O)c2ccc(C)cc2)CCCN(Cc2ccccc2)CCCN(S(=O)(=O)c2ccc(O)cc2)C1.Cl: 5.45
- C=C1CN(S(=O)(=O)c2ccc(C)cc2)CCCN(Cc2ccccc2)CCCN(S(=O)(=O)c2ccc(OC(F)(F)F)cc2)C1.Cl: 5.92
- C=C1CN(S(=O)(=O)c2ccc(C)cc2)CCCN(Cc2ccccc2)CCCN(S(=O)(=O)c2cccc(N(C)C)c2)C1.Cl: 6.1
- C=C1CN(S(=O)(=O)c2ccc(C)cc2)CCCN(Cc2ccccc2)CCCN(S(=O)(=O)c2ccc(F)cc2)C1.Cl: 6.04

Sure, the documented pIC50 for C=C1CN(S(=O)(=O)c2ccc(C)cc2)CCCN(Cc2ccccc2)CCCN(S(=O)(=O)c2ccccc2[N+](=O)[O-])C1.Cl is 6.15

compound C=C1CN(S(=O)(=O)c2ccccc2)CCCN(Cc2ccccc2)CCCN(S(=O)(=O)c2ccc(C)cc2)C1.Cl , pIC50 observed: 5.84

Please fill in: pIC50 reported for C#CCOc1ccc(S(=O)(=O)N2CCCN(Cc3ccccc3)CCCN(S(=O)(=O)c3ccc(C)cc3)CC(=C)C2)cc1.Cl = 6.34

Just so you know, measured pIC50 for C=C1CN(S(=O)(=O)c2ccc(C)cc2)CCCN(Cc2ccccc2)CCCN(S(=O)(=O)c2ccc(N(C)C)cc2)C1.Cl came out at 6.77

Reported pIC50 ( C=C1CN(S(=O)(=O)c2ccc(C)cc2)CCCN(Cc2ccccc2)CCCN(S(=O)(=O)c2cccc([N+](=O)[O-])c2)C1.Cl ) = 5.69

Per the record, C=C1CN(S(=O)(=O)c2ccc(C)cc2)CCCN(Cc2ccccc2)CCCN(S(=O)(=O)N2CCOCC2)C1.Cl has pIC50 of 5.97

Numbers sourced from ChEMBL document CHEMBL3792300.
